Hello, the source for this data is patent EP3130589A1, in case you need it.

# target_system: TRPV1 human (Homo sapiens, UniProt Q8NER1)
# Construct: expressed in transfected cells; host or cells: CHO K1 cells
# Sequence (Q8NER1 whole entry): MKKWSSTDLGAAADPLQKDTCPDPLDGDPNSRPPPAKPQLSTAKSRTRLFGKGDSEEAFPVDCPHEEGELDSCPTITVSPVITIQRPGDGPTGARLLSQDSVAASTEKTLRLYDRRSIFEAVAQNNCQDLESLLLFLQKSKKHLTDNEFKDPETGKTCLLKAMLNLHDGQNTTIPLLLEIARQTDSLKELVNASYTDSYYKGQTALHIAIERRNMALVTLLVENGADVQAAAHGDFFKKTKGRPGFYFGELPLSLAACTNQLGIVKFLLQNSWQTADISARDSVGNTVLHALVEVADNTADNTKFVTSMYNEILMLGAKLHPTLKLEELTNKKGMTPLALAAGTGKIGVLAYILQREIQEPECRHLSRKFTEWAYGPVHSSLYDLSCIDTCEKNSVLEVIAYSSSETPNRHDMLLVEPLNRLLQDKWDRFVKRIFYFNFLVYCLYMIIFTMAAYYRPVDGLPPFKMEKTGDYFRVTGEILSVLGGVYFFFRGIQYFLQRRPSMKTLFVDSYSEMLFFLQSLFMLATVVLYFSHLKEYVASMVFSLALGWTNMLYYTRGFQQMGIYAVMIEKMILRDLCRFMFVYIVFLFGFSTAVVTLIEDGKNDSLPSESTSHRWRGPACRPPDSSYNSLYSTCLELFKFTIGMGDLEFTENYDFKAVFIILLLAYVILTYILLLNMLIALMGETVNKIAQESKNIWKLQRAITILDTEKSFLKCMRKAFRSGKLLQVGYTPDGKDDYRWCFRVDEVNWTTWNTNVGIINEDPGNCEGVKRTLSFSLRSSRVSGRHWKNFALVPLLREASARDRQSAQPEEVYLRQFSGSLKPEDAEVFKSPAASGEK
# method_notes: Functional testing on the vanilloid receptor 1 (VR1/TRPV1): FLIPR Ca2+ influx assay, inhibition of capsaicin (CAP) stimulation
# Assay type: cell-based
# condition_notes: functional (f) FLIPR assay, capsaicin (CAP) 100 nM; Ki from IC50 by Cheng-Prusoff equation
Exam item: assign 1.0 to entries whose Ki is below 30 nM and 0.0 to entries at or above 30 nM. Note that a value of exactly 30 nM receives 0.0.

[in] Regarding COCCCc1nc(C(F)(F)F)ccc1CNC(=O)C(C)c1cn(C)c2ccc(O)cc12 (stereo not shown) , kindly confirm whether its Ki is beneath 30 nM.
[out] 0.0

[in] Regarding CC1CCN(c2nc(C(F)(F)F)ccc2CNC(=O)Nc2nc3ccccc3s2)CC1 , kindly confirm whether its Ki is beneath 30 nM.
[out] 0.0

[in] Regarding CCNc1nc(C(F)(F)F)ccc1CNC(=O)C(C)c1cn(C)c2ccc(O)cc12 (stereo not shown) , kindly confirm whether its Ki is beneath 30 nM.
[out] 0.0

[in] Regarding CC1CCN(c2nc(C(F)(F)F)ccc2CNC(=O)C(C)c2cn(C)c3ccc(O)cc23)CC1 (stereo not shown) , kindly confirm whether its Ki is beneath 30 nM.
[out] 1.0

[in] Regarding CC(C(=O)NCc1ccc(C(F)(F)F)nc1C1CCCC1)c1cn(C)c2ccc(O)cc12 (stereo not shown) , kindly confirm whether its Ki is beneath 30 nM.
[out] 1.0
